The following molecules are listed with their measured effect (kill of beetle larvae) values.
System: Phaedon cochleariae
Assay: Phaedon test (PHAECO spray treatment)
Conditions: 500 g/ha, after 7 days
Write it as a number; the unit % goes unstated.

Recorded results for 2 molecules are shown here.
Cc1cc(Cl)cc(C)c1C1=C(O)C2(CC=C(F)CC2)NC1=O (stereo not drawn): 100
Cc1ccc(-c2ccc(F)c(F)c2)cc1C1=C(O)C2(CCC(F)(F)CC2)NC1=O: 100

// below: effect (kill of beetle larvae) requested for another molecule
**Query** Report effect (kill of beetle larvae) under test system Phaedon cochleariae for Cc1ccc(-c2ccc(Cl)cc2)cc1C1=C(O)C2(CCC(F)(F)CC2)NC1=O .
**Result** 100

* * *

Test: Pharmacokinetic parameters in the rat (i.v. and intragastric)
Format: in vivo
Conditions: male, in vivo, iv, read-out: Vss
reported_metric: Vd
I'd appreciate it if you wrote the number followed by its unit.

**Query** Indicate its recorded Vd; the compound in question is Cc1ccc(-c2ccc(Cl)cc2)cc1C1=C(O)C2(CCC(F)(F)CC2)NC1=O [Example 1-2]
**Result** 0.36 L/kg

* * *

Experiment: Membrane affinity logMA (MA-Transil)
Assay type: physicochemical
Details: buffer pH 7.4
reported_metric: logMA

Recorded results for 2 compounds are shown here.
Cc1ccc(-c2ccc(Cl)cc2)cc1C1=C(O)[C@]2(CC[C@H](C(F)(F)F)CC2)NC1=O [V.2-a, reference compound]: 2.38 (2.0-2.7, n = 4)
Cc1ccc(-c2ccc(Cl)c(F)c2)cc1C1=C(O)[C@]2(CC[C@H](C(F)(F)F)CC2)NC1=O [V.1-a, reference compound]: 2.55 (2.4-2.7, n = 2)

**Query** Indicate its recorded logMA; the compound in question is Cc1ccc(-c2ccc(Cl)cc2)cc1C1=C(O)C2(CCC(F)(F)CC2)NC1=O
**Result** 1.83 (1.7-1.9, n = 3)

**Query** Indicate its recorded logMA; the compound in question is Cc1ccc(-c2ccc(Cl)cc2)cc1C1=C(O)C2(CCCCC2)NC1=O [V.2-b, reference compound]
**Result** 2.05 (1.9-2.2, n = 2)

**Query** Indicate its recorded logMA; the compound in question is Cc1ccc(-c2ccc(Cl)c(F)c2)cc1C1=C(O)C2(CCCCC2)NC1=O [V.1-b, reference compound]
**Result** 2.55 (2.4-2.9, n = 4)

* * *

Experiment: Plasma protein binding by equilibrium dialysis, mouse
Type: in vitro ADME
Conditions: read-out: fu (mouse)
The following compounds are listed with their measured fraction unbound values.

Recorded results for 3 compounds are shown here.
Cc1ccc(-c2ccc(Cl)cc2)cc1C1=C(O)C2(CCCCC2)NC1=O [V.2-b, reference compound]: 0.0281
Cc1ccc(-c2ccc(Cl)c(F)c2)cc1C1=C(O)C2(CCC(F)(F)CC2)NC1=O: 0.0184
Cc1ccc(-c2ccc(Cl)cc2)cc1C1=C(O)C2(CCC(F)(F)CC2)NC1=O: 0.0349

// below: fraction unbound requested for another compound
**Query** Indicate its recorded fraction unbound; the compound in question is Cc1ccc(-c2ccc(Cl)c(F)c2)cc1C1=C(O)C2(CCCCC2)NC1=O [V.1-b, reference compound]
**Result** 0.0746

* * *

Test: Octanol/water distribution coefficient (logP/D), isocratic HPLC method
Type: physicochemical
Conditions: pH 7.4
The following molecules are listed with their measured chromatographic logP values.
Returns: the value as a bare number; no unit string appended.

Cc1ccc(-c2ccc(Cl)c(F)c2)cc1C1=C(O)[C@]2(CC[C@H](C(F)(F)F)CC2)NC1=O [V.1-a, reference compound]: 2.55
Cc1ccc(-c2ccc(Cl)cc2)cc1C1=C(O)[C@]2(CC[C@H](C(F)(F)F)CC2)NC1=O [V.2-a, reference compound]: 2.23
Cc1ccc(-c2ccc(Cl)c(F)c2)cc1C1=C(O)C2(CCCCC2)NC1=O [V.1-b, reference compound]: 2.8
Cc1ccc(-c2ccc(Cl)cc2)cc1C1=C(O)C2(CCC(F)(F)CC2)NC1=O [Example 1-2]: 1.73

**Query** Indicate its recorded chromatographic logP; the molecule in question is Cc1ccc(-c2ccc(Cl)c(F)c2)cc1C1=C(O)C2(CCC(F)(F)CC2)NC1=O [Example 1-1]
**Result** 1.9

**Query** Indicate its recorded chromatographic logP; the molecule in question is Cc1ccc(-c2ccc(Cl)cc2)cc1C1=C(O)C2(CCCCC2)NC1=O [V.2-b, reference compound]
**Result** 2.77

* * *

Experiment: PC-3 prostate carcinoma xenograft model in the mouse
Details: male, NMRI-nude (nu/nu), mouse, in vivo, po, 40 mg/kg
reported_metric: AUC (µg·h/mL)
Write it as a number; the unit µg·h/mL goes unstated.

**Query** Indicate its recorded AUC; the compound in question is Cc1ccc(-c2ccc(Cl)c(F)c2)cc1C1=C(O)C2(CCC(F)(F)CC2)NC1=O [Example 1-1]
**Result** 376

* * *

Target: human ACC1 (Homo sapiens, UniProt Q13085)
Construct: FLAG (C); made in house; host or cells: baculovirus-infected insect cells (Hi5)
Assay: Human ACC1 enzyme assay (ADP-Glo)
Format: biochemical
Settings: individual measurements; read-out: ACC 1 IC50
reported_metric: IC50 (nM)
Write it as a number; the unit nM goes unstated.

**Query** Indicate its recorded IC50; the compound in question is Cc1ccc(-c2ccc(Cl)c(F)c2)cc1C1=C(O)C2(CCCCC2)NC1=O [V.1-b, reference compound]
**Result** 43

* * *

Test: PC-3 prostate carcinoma xenograft model in the mouse
Settings: male, NMRI-nude (nu/nu), mouse, in vivo, po, 80 mg/kg
reported_metric: AUC
I'd appreciate it if you wrote the number followed by its unit.

**Query** Indicate its recorded AUC; the molecule in question is Cc1ccc(-c2ccc(Cl)c(F)c2)cc1C1=C(O)C2(CCC(F)(F)CC2)NC1=O
**Result** 6080 µg·h/mL

* * *

Assay: Plasma protein binding by equilibrium dialysis, human
Assay type: in vitro ADME
Conditions: read-out: fu (human)
The following compounds are listed with their measured fraction unbound values.
Returns: the value as a bare number; no unit string appended.

Recorded results for 3 compounds are shown here.
Cc1ccc(-c2ccc(Cl)c(F)c2)cc1C1=C(O)C2(CCC(F)(F)CC2)NC1=O: 0.0035
Cc1ccc(-c2ccc(Cl)c(F)c2)cc1C1=C(O)C2(CCCCC2)NC1=O [V.1-b, reference compound]: 0.004
Cc1ccc(-c2ccc(Cl)cc2)cc1C1=C(O)C2(CCC(F)(F)CC2)NC1=O: 0.0042

// below: fraction unbound requested for another compound
**Query** Indicate its recorded fraction unbound; the compound in question is Cc1ccc(-c2ccc(Cl)cc2)cc1C1=C(O)C2(CCCCC2)NC1=O [V.2-b, reference compound]
**Result** 0.0036

* * *

Tested on: PC3
Experiment: Tumour cell proliferation, CellTiter-Glo, 96-hour incubation, PC3
Format: cell-based
Details: Homo sapiens, PC-3, 96 h; read-out: PC3 IC50
The following compounds are listed with their measured IC50 values.
Write it as a number; the unit nM goes unstated.

Cc1ccc(-c2ccc(F)cc2)cc1C1=C(O)C2(CCC(F)(F)CC2)NC1=O [Example 1-3]: 476
O=C1NC2(CCC(F)(F)CC2)C(O)=C1c1cc(-c2ccc(Cl)cc2)ccc1Cl [Example 1-4]: 231
Cc1ccc(-c2ccc(Cl)c(F)c2)cc1C1=C(O)[C@]2(CC[C@H](C(F)(F)F)CC2)NC1=O [V.1-a, reference compound]: 398
Cc1ccc(-c2ccc(Cl)cc2)cc1C1=C(O)[C@]2(CC[C@H](C(F)(F)F)CC2)NC1=O [V.2-a, reference compound]: 38

// below: IC50 requested for another compound
**Query** Indicate its recorded IC50; the compound in question is Cc1ccc(-c2ccc(F)c(F)c2)cc1C1=C(O)C2(CCC(F)(F)CC2)NC1=O [Example 1-6]
**Result** 158

* * *

Experiment: Maximum tolerated dose (MTD) in the mouse
Format: in vivo
Conditions: female, NMRI-nude (nu/nu), mouse, in vivo, oral, 50 mg/kg; 21-day treatment, administration twice per day
reported_metric: MTD at 21 days

**Query** Indicate its recorded MTD at 21 days; the compound in question is Cc1ccc(-c2ccc(Cl)c(F)c2)cc1C1=C(O)C2(CCC(F)(F)CC2)NC1=O [Example 1-1]
**Result** > 50 mg/kg

* * *

Test: Pharmacokinetic parameters in the rat (i.v. and intragastric)
Assay type: in vivo
Details: male, in vivo, iv, read-out: CLplasma (converted)
reported_metric: clearance (mL/min/kg)
Write it as a number; the unit mL/min/kg goes unstated.

**Query** Indicate its recorded clearance; the compound in question is Cc1ccc(-c2ccc(Cl)cc2)cc1C1=C(O)C2(CCC(F)(F)CC2)NC1=O
**Result** 0.1

* * *

Target: human serum albumin (HSA) (Homo sapiens)
Sequence (P02768 25-609): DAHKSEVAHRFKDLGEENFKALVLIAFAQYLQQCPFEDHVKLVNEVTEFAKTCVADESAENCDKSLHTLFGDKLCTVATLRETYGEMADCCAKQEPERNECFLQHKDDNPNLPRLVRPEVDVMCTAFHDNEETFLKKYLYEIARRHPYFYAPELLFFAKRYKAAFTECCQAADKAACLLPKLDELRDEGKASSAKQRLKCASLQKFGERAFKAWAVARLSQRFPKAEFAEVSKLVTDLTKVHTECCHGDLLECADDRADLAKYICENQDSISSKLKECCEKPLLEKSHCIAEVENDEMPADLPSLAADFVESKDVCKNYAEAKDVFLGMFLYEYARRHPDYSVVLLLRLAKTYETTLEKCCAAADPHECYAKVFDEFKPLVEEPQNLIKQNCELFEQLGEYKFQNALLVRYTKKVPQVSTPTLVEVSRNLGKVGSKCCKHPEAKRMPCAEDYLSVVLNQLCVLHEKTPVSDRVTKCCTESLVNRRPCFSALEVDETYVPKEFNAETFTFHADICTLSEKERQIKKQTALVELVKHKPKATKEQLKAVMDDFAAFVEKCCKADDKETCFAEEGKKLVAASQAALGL
Experiment: Protein binding to human serum albumin (HSA-Transil)
The following molecules are listed with their measured pKd values.
pKd here is simply -log10 of the concentration when that concentration is written in mol/L.

Recorded results for 4 molecules are shown here.
Cc1ccc(-c2ccc(Cl)c(F)c2)cc1C1=C(O)C2(CCC(F)(F)CC2)NC1=O: 5.52
Cc1ccc(-c2ccc(Cl)cc2)cc1C1=C(O)C2(CCC(F)(F)CC2)NC1=O: 5.41
Cc1ccc(-c2ccc(Cl)c(F)c2)cc1C1=C(O)C2(CCCCC2)NC1=O [V.1-b, reference compound]: 5.46
Cc1ccc(-c2ccc(Cl)c(F)c2)cc1C1=C(O)[C@]2(CC[C@H](C(F)(F)F)CC2)NC1=O [V.1-a, reference compound]: 5.84

**Query** Indicate its recorded pKd; the molecule in question is Cc1ccc(-c2ccc(Cl)cc2)cc1C1=C(O)C2(CCCCC2)NC1=O [V.2-b, reference compound]
**Result** 5.49
